# tested_system: SpSla1-D1-D2
# protocol_details: SPOT peptide array binding signal intensity (averaged, normalized) (arbitrary units (background-subtracted, floor 0; scale differs between SH3 domains)); higher = stronger binding of the SH3 domain to the peptide
Please provide measured SPOT peptide array binding signal intensity for the entries that follow.
Answers are plain numbers.

// solved cases for SPOT peptide array binding signal intensity follow
{"binder": "NLKKRPPTAPQRKIS", "experimental_value": 13}
{"binder": "SLSRRRFSLPSMPNV", "experimental_value": 5}
{"binder": "LYEAMPPTLPHRDWK", "experimental_value": 1}
{"binder": "NENKKLPPAPTVFGL", "experimental_value": 8}
{"binder": "QPWTDQFEKLEKEVS", "experimental_value": 3}
{"binder": "QLLNPNRRAPRRPLS", "experimental_value": 3}
{"binder": "GATNNAPTLPKRKNP", "experimental_value": 7}
{"binder": "VPPVPLPFGIPPFPM", "experimental_value": 3}
{"binder": "NFLRLLIGLPSQNEL", "experimental_value": 4}

// query Look at this binder and give its reported SPOT peptide array binding signal intensity. RKLRTVPGVPLIHLT
// result 1
